Measure: pKi
When answering, recall that pKi equals minus log10 of the concentration in mol/L, and write that number alone.

Enter reported pKi observed with High affinity cGMP-specific 3',5'-cyclic phosphodiesterase 9A (Homo sapiens) for CCC(c1ncc(OC(F)(F)F)cn1)N(C)c1nc2c(c(C#N)nn2C(C)c2ccc(C(F)(F)F)nc2)c(=O)[nH]1 (single isomer, unassigned; form 4) [US20260001888, Example 62] 7.29

Enter reported pKi observed with High affinity cGMP-specific 3',5'-cyclic phosphodiesterase 9A (Homo sapiens) for CCC(c1ncc(OC(F)(F)F)cn1)N(C)c1nc2c(c(C#N)nn2C(C)c2ccc(C(F)(F)F)nc2)c(=O)[nH]1 (single isomer, unassigned; form 3) [US20260001888, Example 61] 9.77

Enter reported pKi observed with High affinity cGMP-specific 3',5'-cyclic phosphodiesterase 9A (Homo sapiens) for CCC(c1ncc(OC(F)(F)F)cn1)N(C)c1nc2c(c(C#N)nn2C(C)c2ccc(C(F)(F)F)nc2)c(=O)[nH]1 (single isomer, unassigned; form 1) [US20260001888, Example 59] 7.92

Enter reported pKi observed with High affinity cGMP-specific 3',5'-cyclic phosphodiesterase 9A (Homo sapiens) for CCC(c1ncc(OC(F)(F)F)cn1)N(C)c1nc2c(c(C#N)nn2C(C)c2ccc(C(F)(F)F)nc2)c(=O)[nH]1 (single isomer, unassigned; form 2) [US20260001888, Example 60] 8.97
